Origin of values: patent US20240391937A1

Tested on: MDA-MB-436 cells
test.summary: MDA-MB-436 cell activity test (CellTiter-Glo, 7 days)
Assay type: cell-based
measurement.parameters: Homo sapiens; MDA-MB-436 cells, 10 μM; read-out: Max inh. % 10 μM
reported.endpoint: inhibition at 10 µM
Kindly write the number and append the unit.

Reference set, count: 4
// lookup inhibition at 10 µM for O=C(NC1CC1)c1ccc(N2CCN(Cc3cnc4cc(C5CC5)c(=O)[nH]c4c3)CC2)cn1
80.7%

How about this compound: CNC(=O)c1ccc(N2CCN(Cc3cnc4cc(C5CC5)c(=O)[nH]c4c3)CC2)cn1
86.3%

How about this compound: Cn1cc(NC(=O)c2ccc(N3CCN(Cc4cnc5cc(C6CC6)c(=O)[nH]c5c4)CC3)cn2)cn1
85.4%

How about this compound: O=c1[nH]c2cc(CN3CCN(c4cn5cc(C(F)(F)F)nc5cn4)CC3)cnc2cc1C1CC1
97.4%

Moving on to the next compound.
// lookup inhibition at 10 µM for O=C(NC1CC1)c1ccc(C2=CCN(Cc3cnc4cc(C5CC5)c(=O)[nH]c4c3)CC2)cn1
82.1%
